So I've got a bunch of compounds here, and I need their inhibition values.
target: MAP kinase-activated protein kinase 3 (Homo sapiens) (UniProt Q16644); details: at 0.1 µM
Sequence (Q16644 whole entry, looked up): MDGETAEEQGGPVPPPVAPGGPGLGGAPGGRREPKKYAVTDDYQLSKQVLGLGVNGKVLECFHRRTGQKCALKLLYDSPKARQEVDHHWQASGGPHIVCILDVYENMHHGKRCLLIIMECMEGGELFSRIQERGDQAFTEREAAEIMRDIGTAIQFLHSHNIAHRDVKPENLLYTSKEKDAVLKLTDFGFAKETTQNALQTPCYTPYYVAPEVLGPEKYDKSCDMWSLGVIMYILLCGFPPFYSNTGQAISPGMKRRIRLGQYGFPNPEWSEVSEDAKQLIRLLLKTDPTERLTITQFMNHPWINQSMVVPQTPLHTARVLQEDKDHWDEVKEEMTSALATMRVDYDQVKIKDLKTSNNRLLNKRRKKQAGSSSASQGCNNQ
Description: GSK_PKIS: MAPKAPK3 mean inhibition at 0.1 uM [Nanosyn]
Express the result in % but write the number alone.

# compound NCc1ccc(-c2nc(-c3ccc(Cl)c(O)c3)c(-c3ccncc3)[nH]2)cc1 ; its inhibition = 15.5

Lab note: COc1ccc2cc(-c3c(-c4ccncc4)nc(-c4ccc([S+](C)[O-])cc4)n3C)ccc2c1 (stereo not given) gave inhibition of 2.16

Memo: CCN1CCC(CC(=O)Nc2n[nH]c3nc(-c4cccs4)c(Br)cc23)CC1 , reported inhibition: -2.21

Sure, the documented inhibition for Fc1cccc(COc2ccc(Nc3ncnc4sc(-c5cccs5)cc34)cc2Cl)c1 is -4.76

GET /value?item= CC1=C(C(=O)Nc2ccc3[nH]ncc3c2)C(c2ccc(Cl)c(Cl)c2)CC(=O)N1 (stereo not given) &field=inhibition returns 2.5

For this compound ( COc1ccc(COc2ccc(Cc3cnc(N)nc3N)cc2OC)cc1 ), measured inhibition is 6.15

Looking up COc1cc(C=NNc2ncnc3c2cnn3-c2ccccc2)ccc1O , I found its inhibition recorded as -3.81

// inhibition lookup, compound = O=C1NC(=O)C(c2ccc(Cl)cc2)=C1Nc1ccc(Cl)c(C(=O)O)c1 , result: -0.48

The value of inhibition measured for the compound Fc1cccc(COc2ccc(Nc3ncnc4cc(-c5ccc[nH]5)sc34)cc2Cl)c1 turned out to be 0.31

// inhibition value for COc1cc2ncn(-c3cc(O[C@H](C)c4ccccc4Cl)c(C(N)=O)s3)c2cc1OC : -2.77
